# System: NCI-H226 lung
# EXPERIMENT_DESCRIPTION: NCI-60 one-dose screen, 48 h
# CONDITION_DETAILS: 10 µM unless noted
About 83,000 compounds went through this panel and 20% of them were active in at least one assay; those are over-represented in the sample as a whole. Calls of active or inactive are those of the source. Rule for the calls: active = growth percent below 10; inactive = the rest.
Your answer must be one of the following: active, inactive

# count of solved cases: 5
| COMPOUND | QUALITATIVE_LABEL |
| --- | --- |
| CC(=O)N1N=C(c2cccc(Nc3ccncc3)c2)CC1c1ccccc1 (stereo not given) | inactive |
| Cc1cccc(Oc2ccc(Nc3ncnc4ccc(NC(=O)CN(C)C)cc34)cc2Cl)c1 | inactive |
| COc1cc(NCCN(CC(C)C)C2CCCC2)c2ncccc2c1 | inactive |
| NNC(=O)/C(=C\c1ccc([N+](=O)[O-])cc1)CC(=O)c1ccc(Cl)c(Cl)c1 | inactive |
| CCCC/C(=N\N=C(N)N)c1ccc(F)cc1 | inactive |

GET /call?item= "COC(=O)N[C@H]1CCc2cc(OC)c(OC)c(OC)c2-c2ccc(SC)c(=O)cc21" returns the recorded outcome of this test.
active

Name the outcome recorded for "Nc1cc(N)c2cccnc2c1O" in the assay.
inactive

Hey, what did the test say about COc1ccc(C(O)c2cc3c(N)c(C(=O)Nc4cccc(OC)c4)sc3nc2C)cc1 (stereo not given) ?
inactive

For this compound, state the assay outcome: "COC(=O)Nc1nc2ccc(C(=O)c3cccc(I)c3)cc2[nH]1"
inactive

What classification did "COc1ccc(-c2nc(SC)nc(N3CCOCC3)c2C#N)cc1" end up with in this test?
inactive

Short answer needed: outcome of this test for "CCCCCCCCOC(=O)c1ccc(O)c(OC)c1" ?
inactive

Answer briefly: the call reported for "CCCc1cc2c(cc1Br)OCO2" in this assay.
inactive

Hi, sorry to bother you, what did the test record for "O=C(Nc1sc2c(c1C(=O)O)CCCC2)c1cccc(C(F)(F)F)c1" ?
inactive

Hello, I am checking results. What call was entered for "FC(F)(F)c1cccc(Oc2ccc(Nc3ncnc4ccc(OCCCN5CCOCC5)cc34)cc2Cl)c1" ?
inactive

Per the records of this test, what outcome belongs to COc1cc(NCC(O)CN(CC(C)C)CC(C)C)c2nc(C)ccc2c1 (stereo not given) ?
inactive

Hi, sorry to bother you, what did the test record for "COc1ccc(-c2c(-c3ccccc3)noc2N)cc1OC" ?
inactive

Test call, this compound: Clc1ccc(N2N=C(c3cccc(Nc4ccncc4)c3)CC2c2ccc3c(c2)OCO3)cc1 (stereo not given)
inactive

Hello, I am checking results. What call was entered for "O=S(=O)(NCCCNc1nccc(-c2c(-c3ccc(F)c(O)c3)nc3sccn23)n1)c1ccc(F)cc1" ?
inactive

Just curious, what result did "C#CC(=O)Nc1cccc2c1cc(C)n2-c1nc2c(c(NCc3ccccc3)n1)CCCC2" get here?
active

Kindly provide the recorded test outcome for the following compound: "CCc1c(Nc2ccc(C)cc2)nc(N)[nH]c1=O"
inactive

Which outcome was assigned to "CCCCCOc1ccc(/C=N/Nc2cc(C)nc3ccc(Br)cc23)cc1" in this test?
inactive

Answer briefly: the call reported for "COc1ccc(NC(=O)c2sc3nc(C)c(C(=O)CCc4cccc(OC)c4)cc3c2N)cc1" in this assay.
inactive

Recorded test outcome, item "O=[N+]([O-])c1cccc(-c2nc(-c3ccc(Cl)cc3Cl)cn2-c2ccccc2)c1"
inactive

# fetch the recorded call for "O=C1Nc2c(ccc(Cl)c2Cl)/C1=C/c1ccc(F)cc1" here
inactive

Per the records of this test, what outcome belongs to Clc1ccc(C2CC(c3cccc(Nc4ccncc4)c3)=NN2c2ccccc2)cc1 (stereo not given) ?
inactive

---

# Tested on: IGROV1 ovarian
# EXPERIMENT_DESCRIPTION: NCI-60 one-dose screen, 48 h
# CONDITION_DETAILS: 10 µM unless noted
The panel holds about 83,000 compounds, 20% with a hit somewhere; the sample as a whole holds those more often. Calls of active or inactive are those of the source. How the source made its calls: active means growth percent below 10; inactive means the rest.
Tick one outcome: YES (active), NO (inactive)

These recorded examples may help you get a feel for the data.
| COMPOUND | QUALITATIVE_LABEL |
| --- | --- |
| COc1ccc(NS(=O)(=O)c2ccc(C)cc2)c([N+](=O)[O-])c1 | NO |
| COc1ccc(-c2nc(N/N=C/c3ccco3)nc(N3CCOCC3)c2C#N)cc1 | NO |
| CC(=O)[C@@H]1CC[C@]2(C(N)=O)CC[C@]3(C)[C@H](CC[C@@H]4[C@@]5(C)CCC(=O)C(C)(C)[C@@H]5CC[C@]43C)[C@@H]12 | NO |
| NC(=O)c1cccc(-c2cc(C(N)=O)ccc2Cl)c1 | NO |
| CCOC(=O)N1CCN(CCCCl)CC1 | NO |
| COc1ccc(Cn2nc(-c3cc(OC)c(OC)c(OC)c3)c3c2CCc2cnoc2-3)cc1OC | NO |

For "CCOC(=O)C1=C(C)NC(C)=C(C(=O)OCC)C1c1cc(Br)c(O)c(OC)c1" , which call appears in the assay record?
NO

// outcome(item) with item = "CN1CCCC1=Nc1ccccc1"
NO

What was the test verdict on "Clc1nc(Cl)c2ncn(CC3(Cn4cnc5c(Cl)nc(Cl)nc54)COC3)c2n1" ?
YES

Test call, this compound: "CC(=O)O[C@H]1CC[C@@]2(C)[C@@H](CC[C@@H]3[C@@H]2CC[C@@]2(C)[C@H]3CC[C@]2(O)C(C)=O)C1"
NO

Given "CCN(CC)CCOC(COc1cc(C)cc(C)c1)COc1cc(C)cc(C)c1" , state the outcome it received in this test.
NO

Recorded call for "CS(=O)(=O)c1ccc(-c2cc(-c3nnc(SCC(=O)Nc4ccc(C(=O)/C=C/c5ccc(Cl)cc5)cc4)n3-c3ccccc3)c3ccccc3n2)cc1" ?
NO

Field: outcome | Entry: "O=C1c2ccccc2C(=O)c2c(NCCN=Cc3ccccc3O)cccc21"
NO

Dear all, I need the recorded test outcome for "COc1ccc(/C=N/NC(=O)c2cccc3cc[nH]c23)cc1O" , thank you.
NO

Returns: the outcome recorded for "c1ccc(-c2nn(-c3ccccc3)[n+](-c3cccc4ccccc34)n2)cc1" in this assay.
NO

---

# System: MCF7 breast
# EXPERIMENT_DESCRIPTION: NCI-60 one-dose screen, 48 h
# CONDITION_DETAILS: 10 µM unless noted
This is part of a sample that, as a whole, favours compounds with a hit. Of some 83,000 tested, about 20% had one in any assay. Activity calls are given as the source filed them. How the source made its calls: active means growth percent below 10; inactive means the rest.
Outcome field: choose from active, inactive

| MOLECULE | TARGET_UNDER_TEST | QUALITATIVE_LABEL |
| --- | --- | --- |
| COc1cc2nc(-c3ccc(C(F)(F)F)cc3)cc(OCCCN3CCC(O)CC3)c2cc1OC | MCF7 breast | inactive |

Kindly review the next molecule as well.
Hey, what did the test say about COc1ccc(/C=N/C2=C(C#N)C(c3ccccc3[N+](=O)[O-])c3ccc4ccccc4c3O2)cc1 (configuration not stated) ?
inactive

---

Here the recorded growth is given for each entry.
# Tested on: UACC-257 melanoma
# EXPERIMENT_DESCRIPTION: NCI-60 one-dose screen, 48 h (100 = growth as untreated, 0 = no growth, -100 = all killed)
# CONDITION_DETAILS: 10 µM unless noted
This is part of a sample that, as a whole, favours compounds with a hit. Of some 83,000 tested, about 20% had one in any assay. Activity calls are given as the source filed them. Rule for the calls: active = growth percent below 10; inactive = the rest.

Per the record, "Nc1nnc(C(=O)c2cnc3n(c2=O)CCCCC3)s1" has growth of 101% (inactive)

Lab note: "COc1ccc(-c2c(-c3ccccc3)noc2N)cc1OC" gave growth of 88.3% (inactive)

For "COc1ccc(-c2nc(N=Nc3c(O)[nH]c4ccccc34)nc(N3CCOCC3)c2C#N)cc1" the compound record lists growth as 73.6% (inactive)

Sure, the documented growth for COc1ccccc1/C=N/NC1=NC2C(N1)N(C)C(=O)N2C (stereo unspecified) is 98.3% (inactive)

Short answer for "NC(=O)c1cccc(-c2ccccc2N2CCCCC2)c1" : growth was 99.3% (inactive)

---

# System: IGROV1 ovarian
# EXPERIMENT_DESCRIPTION: NCI-60 one-dose screen, 48 h (100 = growth as untreated, 0 = no growth, -100 = all killed)
# CONDITION_DETAILS: 10 µM unless noted
About 83,000 compounds went through this panel and 20% of them were active in at least one assay; those are over-represented in the sample as a whole. The source made the active and inactive calls. The calls were made as follows: active = growth percent below 10; inactive = the rest.
Entries annotated with measured growth

# example entries with known answers
| COMPOUND | ENDPOINT | ENDPOINT_VALUE |
| --- | --- | --- |
| CCOC(=O)c1c(C)nc2c(c1N)C(=O)C(=O)N2Cc1ccc(C(F)(F)F)cc1 | growth | 62.5% (inactive) |
| NC(=S)N/N=C(/c1ccccc1)c1ccccc1N | growth | 40.1% (inactive) |
| Clc1ccc(N2N=C(c3cccc(Nc4ccncc4)c3)CC2c2ccccc2)cc1 (centres undefined) | growth | 92.9% (inactive) |

growth measured on "Cc1nc2sc(C(=O)Nc3ccccc3)c(N)c2cc1C(=O)c1ccc(C(F)(F)F)cc1" = 101% (inactive)

Provenance of the data: PubChem BioAssay (NCI)
